Test Description: Worst-case calculation (100% migration), standard EU Cube exposure model
Particulars: substance in ink SBDEV979 (Ex. 4D Black); 100% migration, dry coat weight 2.0 g/m^2
Where a name gives a salt, the structure may show the parent alone.
Measurement Name: Worst Case Calculation of migration in EU Cube model (as a percentage of SML)

Worked cases, answers included:
> print(dat)
                                   molecule          endpoint.value
1  CCCC1OC(CCC)OC(CCC)O1 (stereo not shown) [0002396-43-2, 2,4,6-tripropyl-1,3,5-Trioxane]    65 percentage of SML
2  CCCCCCCC/C=C\CCCCCCCC(=O)OCC [0000111-62-6, Ethyl Oleate]  22.2 percentage of SML
3  O=C1NCCN1 [0000120-93-4, 2-Imidazolidinone]    15 percentage of SML

Next molecule, please.
Query string: I would be grateful if you could share the reported Worst Case Calculation of migration in EU Cube model (as a percentage of SML) for CCCCOC(=O)CC(O)(CC(=O)OCCCC)C(=O)OCCCC [0000077-94-1, Tributyl citrate] .
Result string: 52.8 percentage of SML

----------
Test Description: Worst-case calculation, Application 1 yoghurt pot lid exposure scenario
Particulars: product SBDEV1286; 100% migration; 2.0 g/m^2 dry film
Counter-ions that a name gives are not always drawn.
Measurement Name: Worst-case calculation as a percentage of SML (or restriction), Application 1

Worked cases, answers included:
> print(dat)
                                   compound                           endpoint.value
1                            c1ccc2ccccc2c1   0.2 percentage of SML (or restriction)
2                                 O=C1NCCN1   4.7 percentage of SML (or restriction)
3  CCCC1OC(CCC)OC(CCC)O1 (centres unmarked)  24.0 percentage of SML (or restriction)

Query string: I would be grateful if you could share the reported Worst-case calculation as a percentage of SML (or restriction), Application 1 for CCCCOC(=O)CC(O)(CC(=O)OCCCC)C(=O)OCCCC [0000077-94-1, Tributyl citrate] .
Result string: 20.73 percentage of SML (or restriction)

Query string: I would be grateful if you could share the reported Worst-case calculation as a percentage of SML (or restriction), Application 1 for CCCCCCCC/C=C\CCCCCCCC(=O)OCC [0000111-62-6, Ethyl Oleate] .
Result string: 8.91 percentage of SML (or restriction)

----------
Collected Worst-case calculation as a percentage of SML (or restriction), EU Cube values appear next to each entry.
Test Description: Worst-case calculation (100% migration), standard EU Cube exposure model
Particulars: product SBDEV977; 100% migration; 2.0 g/m^2 dry film
Where a name gives a salt, the structure may show the parent alone.

> print(dat)
                                   compound                           endpoint.value
1  CCCCCCCC/C=C\CCCCCCCC(=O)OCC [0000111-62-6, Ethyl Oleate]  24.0 percentage of SML (or restriction)
2                                 O=C1NCCN1    15 percentage of SML (or restriction)
3  O=C1NC(=O)c2ccccc21 [0000085-41-6, Phthalimide]   960 percentage of SML (or restriction)
4  CCCCOC(=O)CC(O)(CC(=O)OCCCC)C(=O)OCCCC [0000077-94-1, Tributyl citrate]  53.2 percentage of SML (or restriction)
5  CCCC1OC(CCC)OC(CCC)O1 (stereo not drawn)    67 percentage of SML (or restriction)

Next compound, please.
Query string: I would be grateful if you could share the reported Worst-case calculation as a percentage of SML (or restriction), EU Cube for CCCCCCCC/C=C\CCCCCCCC(=O)N(CCO)CCO [0000093-83-4, N,N-Bis(2-hydroxyethyl) oleamide] .
Result string: 69 percentage of SML (or restriction)

----------
Collected Worst-case calculation as a percentage of SML (or restriction), Application 2 values appear next to each entry.
Test Description: Worst-case calculation, Application 2 cheese packaging wrap exposure scenario
Particulars: product SBDEV977; 100% migration; 2.0 g/m^2 dry film
Counter-ions that a name gives are not always drawn.

> print(dat)
                                   compound                           endpoint.value
1  CCCCOC(=O)CC(O)(CC(=O)OCCCC)C(=O)OCCCC [0000077-94-1, Tributyl citrate]  76.7 percentage of SML (or restriction)
2  CCCCCCCC/C=C\CCCCCCCC(=O)N(CCO)CCO [0000093-83-4, N,N-Bis(2-hydroxyethyl) oleamide]  99.4 percentage of SML (or restriction)
3  O=C1NCCN1 [0000120-93-4, 2-Imidazolidinone]  21.6 percentage of SML (or restriction)
4  CCCC1OC(CCC)OC(CCC)O1 (stereo not drawn) [0002396-43-2, 2,4,6-tripropyl-1,3,5-Trioxane]  96.5 percentage of SML (or restriction)

Next compound, please.
Query string: I would be grateful if you could share the reported Worst-case calculation as a percentage of SML (or restriction), Application 2 for CCCCCCCC/C=C\CCCCCCCC(=O)OCC [0000111-62-6, Ethyl Oleate] .
Result string: 34.6 percentage of SML (or restriction)

----------
Collected SML or Restriction (mg substance/kg food) values appear next to each entry.
Test Description: Specific migration limit (SML) from regulation or hazard assessment (TTC, VEGA QSAR, Cramer Class)
Particulars: source HA (internal hazard assessment), self-derived SML; EU Cube model
Number in mg substance/kg food, nothing else.

Worked cases, answers included:
> print(dat)
                                   compound  endpoint.value
1  O=C1NCCN1 [0000120-93-4, 2-Imidazolidinone]            4.98
2  CCCCCCCC/C=C\CCCCCCCC(=O)N(CCO)CCO [0000093-83-4, N,N-Bis(2-hydroxyethyl) oleamide]            0.09
3  O=C1NC(=O)c2ccccc21 [0000085-41-6, Phthalimide]            0.09
4  NC(=O)c1ccc(-c2ccccc2)cc1 [0003815-20-1, 4-Phenylbenzamide]            0.09

Next compound, please.
Query string: I would be grateful if you could share the reported SML or Restriction (mg substance/kg food) for O=Cc1ccc(Cl)cc1 [0000104-88-1, 4-Chlorobenzaldehyde] .
Result string: 0.09

----------
Collected Worst-case calculation as a percentage of SML (or restriction), EU Cube values appear next to each entry.
Test Description: Worst-case calculation (100% migration), standard EU Cube exposure model
Particulars: product SBDEV980; 100% migration; 2.0 g/m^2 dry film

> print(dat)
                                   molecule                         endpoint.value
1  O=C1NCCN1 [0000120-93-4, 2-Imidazolidinone]  16 percentage of SML (or restriction)

Query string: I would be grateful if you could share the reported Worst-case calculation as a percentage of SML (or restriction), EU Cube for O=C(O)c1ccc(-c2ccccc2)cc1 [0000092-92-2, 4-Phenylbenzoic Acid] .
Result string: 7 percentage of SML (or restriction)

Query string: I would be grateful if you could share the reported Worst-case calculation as a percentage of SML (or restriction), EU Cube for NC(=O)c1ccc(-c2ccccc2)cc1 [0003815-20-1, 4-Phenylbenzamide] .
Result string: 230 percentage of SML (or restriction)

Query string: I would be grateful if you could share the reported Worst-case calculation as a percentage of SML (or restriction), EU Cube for CCCC1OC(CCC)OC(CCC)O1 (centres unmarked) [0002396-43-2, 2,4,6-tripropyl-1,3,5-Trioxane] .
Result string: 60 percentage of SML (or restriction)

Query string: I would be grateful if you could share the reported Worst-case calculation as a percentage of SML (or restriction), EU Cube for CCCCCCCC/C=C\CCCCCCCC(=O)OCC [0000111-62-6, Ethyl Oleate] .
Result string: 24.0 percentage of SML (or restriction)

----------
Test Description: Worst-case calculation, Application 2 cheese packaging wrap exposure scenario
Particulars: product SBDEV980; 100% migration; 2.0 g/m^2 dry film
Structures can show the parent of a compound that is named as a salt.
Collected Worst-case calculation as a percentage of SML (or restriction), Application 2 values appear next to each entry.

Worked cases, answers included:
> print(dat)
                                   compound                           endpoint.value
1  c1ccc(-c2ccc(-c3nc(-c4ccc(-c5ccccc5)cc4)nc(-c4ccc(-c5ccccc5)cc4)n3)cc2)cc1   0.4 percentage of SML (or restriction)
2  CCCCOC(=O)CC(O)(CC(=O)OCCCC)C(=O)OCCCC [0000077-94-1, Tributyl citrate]  76.9 percentage of SML (or restriction)
3                                 O=C1NCCN1  23.0 percentage of SML (or restriction)
4  CCCC1OC(CCC)OC(CCC)O1 (stereo not drawn)  95.0 percentage of SML (or restriction)
5                    N#Cc1ccc(-c2ccccc2)cc1   7.2 percentage of SML (or restriction)

Query string: I would be grateful if you could share the reported Worst-case calculation as a percentage of SML (or restriction), Application 2 for "O=C(O)c1ccc(-c2ccccc2)cc1" .
Result string: 10.1 percentage of SML (or restriction)

Query string: I would be grateful if you could share the reported Worst-case calculation as a percentage of SML (or restriction), Application 2 for "O=Cc1ccc(Cl)cc1" .
Result string: 20.2 percentage of SML (or restriction)

Query string: I would be grateful if you could share the reported Worst-case calculation as a percentage of SML (or restriction), Application 2 for CCCCCCCC/C=C\CCCCCCCC(=O)OCC [0000111-62-6, Ethyl Oleate] .
Result string: 34.5 percentage of SML (or restriction)

Query string: I would be grateful if you could share the reported Worst-case calculation as a percentage of SML (or restriction), Application 2 for NC(=O)c1ccc(-c2ccccc2)cc1 [0003815-20-1, 4-Phenylbenzamide] .
Result string: 331.2 percentage of SML (or restriction)
